EXPERIMENTAL TARGET: NR1a/NR2B (Rattus norvegicus, UniProt P35439+Q00960)
Sequence (Q00960 27-1482, other chains not shown): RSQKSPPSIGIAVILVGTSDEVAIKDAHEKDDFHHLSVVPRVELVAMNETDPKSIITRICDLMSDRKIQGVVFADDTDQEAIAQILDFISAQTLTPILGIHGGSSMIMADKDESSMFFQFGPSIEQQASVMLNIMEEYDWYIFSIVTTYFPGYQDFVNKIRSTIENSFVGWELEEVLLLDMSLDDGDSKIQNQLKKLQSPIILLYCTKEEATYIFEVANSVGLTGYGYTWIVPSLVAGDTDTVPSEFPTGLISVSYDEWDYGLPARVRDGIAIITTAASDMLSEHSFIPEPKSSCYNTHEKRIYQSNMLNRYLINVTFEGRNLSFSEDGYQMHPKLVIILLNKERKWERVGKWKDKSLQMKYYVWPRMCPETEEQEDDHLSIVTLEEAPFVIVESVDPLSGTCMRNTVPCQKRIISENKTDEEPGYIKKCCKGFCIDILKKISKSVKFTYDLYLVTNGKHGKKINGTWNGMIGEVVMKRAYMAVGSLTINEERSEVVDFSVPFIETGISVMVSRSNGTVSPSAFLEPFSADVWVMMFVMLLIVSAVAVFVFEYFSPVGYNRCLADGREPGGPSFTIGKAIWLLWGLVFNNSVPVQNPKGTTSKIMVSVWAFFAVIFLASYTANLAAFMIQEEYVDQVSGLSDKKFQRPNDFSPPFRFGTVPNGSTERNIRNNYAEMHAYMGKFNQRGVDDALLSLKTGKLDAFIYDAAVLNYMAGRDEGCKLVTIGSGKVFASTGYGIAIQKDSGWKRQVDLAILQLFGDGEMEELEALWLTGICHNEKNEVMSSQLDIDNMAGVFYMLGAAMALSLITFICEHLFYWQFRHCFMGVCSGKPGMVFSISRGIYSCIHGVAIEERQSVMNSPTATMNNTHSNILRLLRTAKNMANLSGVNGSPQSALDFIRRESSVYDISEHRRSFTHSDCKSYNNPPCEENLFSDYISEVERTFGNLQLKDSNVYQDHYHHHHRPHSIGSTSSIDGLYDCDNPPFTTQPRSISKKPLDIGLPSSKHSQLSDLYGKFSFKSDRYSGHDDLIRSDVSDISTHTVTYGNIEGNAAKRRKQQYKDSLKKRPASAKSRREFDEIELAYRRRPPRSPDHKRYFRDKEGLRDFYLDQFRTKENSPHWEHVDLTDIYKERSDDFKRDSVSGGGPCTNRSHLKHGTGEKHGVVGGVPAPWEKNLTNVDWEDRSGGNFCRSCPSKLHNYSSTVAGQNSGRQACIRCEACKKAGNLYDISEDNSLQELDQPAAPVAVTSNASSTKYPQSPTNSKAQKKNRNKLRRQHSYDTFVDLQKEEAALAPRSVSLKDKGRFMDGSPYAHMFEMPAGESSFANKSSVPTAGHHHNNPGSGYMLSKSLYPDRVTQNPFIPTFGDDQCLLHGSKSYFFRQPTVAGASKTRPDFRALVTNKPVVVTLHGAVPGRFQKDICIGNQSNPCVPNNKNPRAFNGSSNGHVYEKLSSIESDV
EXPERIMENT: Electrophysiological assay at NMDA receptor subunits expressed in Xenopus oocytes (two-electrode voltage clamp)
Format: cell-based
COND: Table 4; cloned rat NMDA receptor subunits in Xenopus oocytes; read-out: NR1a/NR2B Oocyte IC50
# IC50 per entry
Value and unit, in that order.

Example molecules with recorded IC50:
COc1ccc(CCN[C@H]2CC[C@H](c3ccc(O)cc3)CC2)cc1 240 nM
Oc1ccc([C@H]2CC[C@H](NCCc3ccc(F)cc3)CC2)cc1 750 nM
COc1ccc(CCN[C@H]2CC[C@@H](c3ccc(O)cc3)CC2)cc1 2400 nM
Oc1ccc([C@H]2CC[C@@H](NCCc3ccc(F)cc3)CC2)cc1 1200 nM

# evaluate next
[Q] Indicate its recorded IC50; the molecule in question is COc1ccc(CCCN[C@H]2CC[C@H](c3ccc(O)cc3)CC2)cc1
[A] 70 nM

====

Where a name gives a salt, the structure may show the parent alone.
Each entry below carries its reported melting point.

// worked examples, melting point included
COMPOUND	melting point
Oc1ccc([C@H]2CC[C@@H](NCCc3ccccc3)CC2)cc1 [Example 3a, cis-4-(4-Phenethylaminocyclohexyl)phenol]	155 to 160 °C
C[C@H](CCc1ccccc1)N[C@H]1CC[C@H](c2ccc(O)cc2)CC1 [Example 6c]	152 to 160 °C
CC(=O)N(CCCc1ccccc1)[C@H]1CC[C@H](c2ccc(O)cc2)CC1 [Example 17]	175 to 180 °C
Oc1ccc([C@H]2CC[C@H](NCCNc3ccccc3)CC2)cc1 (as salt: maleate) [Example 25]	180 to 184 °C
CC(C)(Oc1ccccc1)C(=O)N[C@H]1CC[C@H](c2ccc(O)cc2)CC1 [Example 22]	114 to 117 °C
COc1ccc(CCCN[C@H]2CC[C@H](c3ccc(O)cc3)CC2)cc1 (as salt: HCl) [Example 28]	235 to 241 °C
COC(=O)N(Cc1ccccc1)[C@H]1CC[C@H](c2ccc(O)cc2)CC1 [Example 19]	61 to 66 °C
C[C@@H](Cc1ccccc1)N[C@H]1CC[C@H](c2ccc(O)cc2)CC1 [Example 13]	183 to 187 °C

[Q] Name the recorded melting point of the item CC(C)N(CCCc1ccccc1)[C@H]1CC[C@H](c2ccc(O)cc2)CC1 (as salt: salt) [Example 27] in your answer.
[A] 146 to 154 °C

[Q] Give melting point for the following compound: Oc1ccc([C@H]2CC[C@@H](NCc3ccccc3)CC2)cc1 [Example 4a, cis-4-(4-Benzylaminocyclohexyl)phenol]
[A] 107 to 110 °C

[Q] Please give measured melting point of the following entry: Oc1ccc([C@H]2CC[C@H](NCCCCCc3ccccc3)CC2)cc1 (as salt: HCl) [Example 9]
[A] 252 to 260 °C

[Q] Quickly give me recorded melting point for CCN(CCCc1ccccc1)[C@H]1CC[C@H](c2ccc(O)c(CN)c2)CC1 (as salt: HCl) [Example 31]
[A] 168 to 173 °C

====

EXPERIMENTAL TARGET: NR1a/NR2B (Rattus norvegicus, UniProt P35439+Q00960)
EXPERIMENT: Electrophysiological assay at NMDA receptor subunits expressed in Xenopus oocytes (two-electrode voltage clamp)
Format: cell-based
COND: Table 2; head names no subunit; electrophysiological assay results; read-out: IC50
pIC50: −log10 of the molar value.
Label true when pIC50 >= 5; otherwise false.

Solved cases (5 shown):
MOLECULE	LABEL
Oc1ccc([C@H]2CC[C@H](NCCNc3ccccc3)CC2)cc1	true
COC(=O)N(Cc1ccccc1)[C@H]1CC[C@H](c2ccc(O)cc2)CC1	false
CC(=O)N(CCCc1ccccc1)[C@H]1CC[C@H](c2ccc(O)cc2)CC1	true
C[C@@H](CCc1ccccc1)N[C@H]1CC[C@H](c2ccc(O)cc2)CC1	true
CC(=O)N(Cc1ccccc1)[C@H]1CC[C@H](c2ccc(O)cc2)CC1	false

[Q] In plain terms: is recorded pIC50 at least 5 for COC(=O)N(CCCc1ccccc1)[C@H]1CC[C@H](c2ccc(O)cc2)CC1 ?
[A] true

[Q] Textbook exercise: given the entry OC[C@@H](Cc1ccccc1)N[C@H]1CC[C@H](c2ccc(O)cc2)CC1 [Example 10b] , state whether its pIC50 is greater than or equal to 5.
[A] true

[Q] Is reported pIC50 greater than or equal to 5 here: CC(C)(Oc1ccccc1)C(=O)N[C@H]1CC[C@H](c2ccc(O)cc2)CC1
[A] false

[Q] Would you say Oc1ccc([C@H]2CC[C@@H](NCCOc3ccccc3)CC2)cc1 [Example 11a] shows pIC50 at minimum 5?
[A] true
